# Species on record: Homo sapiens
# RUN_DESCRIPTION: Selectivity ratio of IC50 for inhibition of CDK4/cyclin D1 (unknown origin) to IC50 for inhibition recombinant human N-terminal GST-tagged full-length CDK2/Flag-tagged cyclinE1 expressed in baculovirus expression system
EXPERIMENTAL_ENDPOINT: Ratio IC50

Check out these entries, answers already filled in.
>  <COMPOUND>
CNS(=O)(=O)c1ccc(Nc2ncc3c(n2)N([C@@H]2CCC[C@@H](O)C2)C(=O)C32CC2)cc1

>  <EXPERIMENTAL_ENDPOINT>
Ratio IC50

>  <MEASURED>
1000

$$$$
>  <COMPOUND>
CNS(=O)(=O)c1ccc(Nc2ncc3c(n2)N([C@@H](C)C2CC2)C(=O)C32CC2)cc1

>  <EXPERIMENTAL_ENDPOINT>
Ratio IC50

>  <MEASURED>
29

$$$$

I: CNS(=O)(=O)c1ccc(Nc2ncc3c(n2)N([C@H]2CCC[C@@H]2C)C(=O)C32CC2)cc1 (relative stereo)
II: NS(=O)(=O)c1ccc(Nc2ncc3c(n2)N(C2CCCC2)C(=O)C32CC2)cc1
q: Given the two records I and II , choose the one whose Ratio IC50 value is lower. Give the label of your selection.
a: II
(II: 5, I: 33)

----------
# RUN_DESCRIPTION: Oral bioavailability in Sprague-Dawley rat at 3 mg/kg measured upto 24 hrs by LC-MS/MS analysis
# Type: ADME, organism-based
# EXPERIMENTAL_PARAMETERS: in vivo
EXPERIMENTAL_ENDPOINT: bioavailability (%)

>  <MOLECULE>
[2H]C([2H])([2H])NS(=O)(=O)c1ccc(Nc2ncc3c(n2)N([C@@H]2CCC[C@@]2(C)O)C(=O)C32CC2)cc1 (relative stereo)

>  <bioavailability (%)>
92

$$$$

P: [2H]C([2H])([2H])NS(=O)(=O)c1ccc(Nc2ncc3c(n2)N([C@@H]2CCC[C@@H](O)C2)C(=O)C32CC2)cc1
Q: Cn1cc(S(=O)(=O)N2CCC(Nc3ncc4c(n3)N([C@@H]3CCC[C@@H](O)C3)C(=O)C43CC3)CC2)cn1
q: Given the two records P and Q , choose the one whose bioavailability value is lower. Give the label of your selection.
a: Q
(Q: 59%, P: 100%)

----------
# RUN_DESCRIPTION: Inhibition of CDK1/cyclin B (unknown origin) in presence of ATP
# Parameters: species or system Homo sapiens
pIC50: −log10 of the molar value.
EXPERIMENTAL_ENDPOINT: pIC50

A: C[C@H]1CCC[C@@H]1N1C(=O)C2(CC2)c2cnc(NC3CCN(S(C)(=O)=O)CC3)nc21 (mixture of isomers)
B: CC1(C)Cc2cnc(Nc3ccc(S(N)(=O)=O)cc3)nc2N(C2CCCC2)C1=O
q: Determine, for A and B , which has the greater value of pIC50. Give the label of your selection.
a: B
(B: 6.77, A: 6.27)

----------
# TARGET_OR_SYSTEM: Cyclin-dependent kinase 2 (Homo sapiens, UniProt P24941)
# RUN_DESCRIPTION: Inhibition of CDK2 in human COV318 cells incubated for overnight in presence of human whole blood by HTRF assay
# Type: cell-based
pIC50: −log10 of the molar value.
EXPERIMENTAL_ENDPOINT: pIC50

Check out these entries, answers already filled in.
>  <COMPOUND>
[2H]C([2H])([2H])NS(=O)(=O)c1ccc(Nc2ncc3c(n2)N([C@@H]2CCC[C@@H](O)C2)C(=O)C32CC2)cc1

>  <MEASURED>
6.19

$$$$
>  <COMPOUND>
Cn1cc(S(=O)(=O)N2CCC(Nc3ncc4c(n3)N([C@@H]3CCC[C@@H](O)C3)C(=O)C43CC3)CC2)cn1

>  <MEASURED>
6.50

$$$$

1: CNS(=O)(=O)c1ccc(Nc2ncc3c(n2)N(c2cc(F)ccc2Cl)C(=O)C32CC2)cc1
2: CNS(=O)(=O)c1ccc(Nc2ncc3c(n2)N([C@H]2CCC[C@@H]2C)C(=O)C32CC2)cc1 (relative stereo)
q: Determine, for 1 and 2 , which has the greater value of pIC50. Give the label of your selection.
a: 2

----------
Reported solubility values for the following molecules.
# RUN_DESCRIPTION: Solubility of compound
# Format: physicochemical

>  <MOLECULE>
Cn1cc(S(=O)(=O)N2CCC(Nc3ncc4c(n3)N([C@@H]3CCC[C@@H](O)C3)C(=O)C43CC3)CC2)cn1

>  <solubility>
> 400 µg/mL

$$$$

Short answer for [2H]C([2H])([2H])NS(=O)(=O)c1ccc(Nc2ncc3c(n2)N([C@@H]2CCC[C@@]2(C)O)C(=O)C32CC2)cc1 (relative stereo) : solubility was > 400 µg/mL

----------
# Organism: Homo sapiens
# RUN_DESCRIPTION: Selectivity ratio of IC50 for inhibition of CDK1/cyclin B (unknown origin) to IC50 for inhibition recombinant human N-terminal GST-tagged full-length CDK2/Flag-tagged cyclinE1 expressed in baculovirus expression system
EXPERIMENTAL_ENDPOINT: Ratio IC50

I: CNS(=O)(=O)c1ccc(Nc2ncc3c(n2)N([C@@H]2CCC[C@@H](O)C2)C(=O)C32CC2)cc1
II: NS(=O)(=O)c1ccc(Nc2ncc3c(n2)N(C2CCCC2)C(=O)C32CC2)cc1
q: Determine, for I and II , which has the greater value of Ratio IC50. Give the label of your selection.
a: I
(I: 1200, II: 250)

1: CNS(=O)(=O)c1ccc(Nc2ncc3c(n2)N([C@H]2CCC[C@@H]2C)C(=O)C32CC2)cc1 (relative stereo)
2: CNS(=O)(=O)c1ccc(Nc2ncc3c(n2)N(c2cc(F)ccc2Cl)C(=O)C32CC2)cc1
3: C[C@@H]1CCC[C@H]1N1C(=O)C2(CC2)c2cnc(Nc3ccc(S(=O)(=O)NCCO)cc3)nc21 (relative stereo)
4: C[C@@H]1CCC[C@H]1N1C(=O)C2(CC2)c2cnc(Nc3ccc(S(=O)(=O)N[C@@H]4CCCN(C)C4)cc3)nc21
q: Rank entries according to their Ratio IC50, from the largest number down. In your reply, arrange the labels in the requested order.
a: 2, 1, 3, 4

----------
# TARGET_OR_SYSTEM: hERG (KCNH2) (Homo sapiens, UniProt Q12809)
# Sequence (Q12809 whole entry): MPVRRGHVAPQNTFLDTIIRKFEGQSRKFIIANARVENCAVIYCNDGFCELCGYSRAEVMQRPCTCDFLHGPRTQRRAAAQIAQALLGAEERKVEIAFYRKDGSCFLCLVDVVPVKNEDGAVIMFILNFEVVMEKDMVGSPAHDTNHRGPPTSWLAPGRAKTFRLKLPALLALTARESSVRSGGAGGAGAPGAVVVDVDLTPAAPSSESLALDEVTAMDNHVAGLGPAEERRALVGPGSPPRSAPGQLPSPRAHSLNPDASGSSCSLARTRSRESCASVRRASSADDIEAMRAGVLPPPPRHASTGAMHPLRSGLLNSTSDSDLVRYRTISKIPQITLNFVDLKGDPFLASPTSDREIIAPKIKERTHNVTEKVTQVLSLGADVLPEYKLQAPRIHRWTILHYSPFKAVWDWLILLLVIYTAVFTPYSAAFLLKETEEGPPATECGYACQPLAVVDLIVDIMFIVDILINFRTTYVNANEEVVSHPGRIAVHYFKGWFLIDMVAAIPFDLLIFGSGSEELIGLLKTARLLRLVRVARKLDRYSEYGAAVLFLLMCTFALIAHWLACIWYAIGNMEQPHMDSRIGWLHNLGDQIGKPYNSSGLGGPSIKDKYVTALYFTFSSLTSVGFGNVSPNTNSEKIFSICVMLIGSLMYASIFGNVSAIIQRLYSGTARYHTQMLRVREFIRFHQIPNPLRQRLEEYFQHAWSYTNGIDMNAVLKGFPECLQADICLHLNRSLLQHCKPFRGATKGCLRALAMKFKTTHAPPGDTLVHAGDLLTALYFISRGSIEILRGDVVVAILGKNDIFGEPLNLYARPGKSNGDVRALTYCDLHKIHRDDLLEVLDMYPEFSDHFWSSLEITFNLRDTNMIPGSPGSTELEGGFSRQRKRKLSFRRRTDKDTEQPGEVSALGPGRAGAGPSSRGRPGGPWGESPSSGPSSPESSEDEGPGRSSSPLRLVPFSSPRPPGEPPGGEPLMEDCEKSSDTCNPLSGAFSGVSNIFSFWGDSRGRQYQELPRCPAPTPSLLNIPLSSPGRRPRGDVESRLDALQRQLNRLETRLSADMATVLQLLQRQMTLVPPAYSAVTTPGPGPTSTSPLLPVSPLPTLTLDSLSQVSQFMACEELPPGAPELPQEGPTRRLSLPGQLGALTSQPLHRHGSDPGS
# RUN_DESCRIPTION: Displacement of [3H]Dofetilide from human ERG at 10 uM incubated for 24 hrs by filter binding assay relative to control
# Assay type: toxicity
# EXPERIMENTAL_PARAMETERS: probe [3H]dofetilide
Reported inhibition at 24 h, 10 µM values for the following compounds.
Record the value in %, omitting the unit from your answer.

Check out these entries, answers already filled in.
>  <COMPOUND>
Cn1cc(S(=O)(=O)N2CCC(Nc3ncc4c(n3)N([C@@H]3CCC[C@@H](O)C3)C(=O)C43CC3)CC2)cn1

>  <TARGET_OR_SYSTEM>
hERG (KCNH2) (Homo sapiens, UniProt Q12809)

>  <EXPERIMENTAL_ENDPOINT>
inhibition at 24 h, 10 µM

>  <MEASURED>
7.2

$$$$
>  <COMPOUND>
[2H]C([2H])([2H])NS(=O)(=O)c1ccc(Nc2ncc3c(n2)N([C@@H]2CCC[C@@H](O)C2)C(=O)C32CC2)cc1

>  <TARGET_OR_SYSTEM>
hERG (KCNH2) (Homo sapiens, UniProt Q12809)

>  <EXPERIMENTAL_ENDPOINT>
inhibition at 24 h, 10 µM

>  <MEASURED>
9.7

$$$$

Let us move to another entry and its inhibition at 24 h, 10 µM.
Short answer for [2H]C([2H])([2H])NS(=O)(=O)c1ccc(Nc2ncc3c(n2)N([C@@H]2CCC[C@@]2(C)O)C(=O)C32CC2)cc1 (relative stereo) : inhibition at 24 h, 10 µM was 16

----------
# TARGET_OR_SYSTEM: Cyclin-dependent kinase 2 (Homo sapiens)
# RUN_DESCRIPTION: Inhibition of CDK2 in human COV318 cells incubated for overnight in presence of human whole blood by HTRF assay
# Assay type: cell-based
pIC50: −log10 of the molar value.
EXPERIMENTAL_ENDPOINT: pIC50

Check out these entries, answers already filled in.
>  <MOLECULE>
[2H]C([2H])([2H])NS(=O)(=O)c1ccc(Nc2ncc3c(n2)N([C@@H]2CCC[C@@]2(C)O)C(=O)C32CC2)cc1 (relative stereo)

>  <TARGET_OR_SYSTEM>
Cyclin-dependent kinase 2 (Homo sapiens)

>  <EXPERIMENTAL_ENDPOINT>
pIC50

>  <MEASURED>
6.13

$$$$
>  <MOLECULE>
NS(=O)(=O)c1ccc(Nc2ncc3c(n2)N(C2CCCC2)C(=O)C32CC2)cc1

>  <TARGET_OR_SYSTEM>
Cyclin-dependent kinase 2 (Homo sapiens)

>  <EXPERIMENTAL_ENDPOINT>
pIC50

>  <MEASURED>
5.12

$$$$
>  <MOLECULE>
C[C@@H]1CCC[C@H]1N1C(=O)C2(CC2)c2cnc(Nc3ccc(S(=O)(=O)N[C@@H]4CCCN(C)C4)cc3)nc21

>  <TARGET_OR_SYSTEM>
Cyclin-dependent kinase 2 (Homo sapiens)

>  <EXPERIMENTAL_ENDPOINT>
pIC50

>  <MEASURED>
7.36

$$$$
>  <MOLECULE>
CNS(=O)(=O)c1ccc(Nc2ncc3c(n2)N([C@@H](C)C2CC2)C(=O)C32CC2)cc1

>  <TARGET_OR_SYSTEM>
Cyclin-dependent kinase 2 (Homo sapiens)

>  <EXPERIMENTAL_ENDPOINT>
pIC50

>  <MEASURED>
6.34

$$$$
>  <MOLECULE>
CNS(=O)(=O)c1ccc(Nc2ncc3c(n2)N([C@@H]2CCC[C@@H](O)C2)C(=O)C32CC2)cc1

>  <TARGET_OR_SYSTEM>
Cyclin-dependent kinase 2 (Homo sapiens)

>  <EXPERIMENTAL_ENDPOINT>
pIC50

>  <MEASURED>
6.17

$$$$

I: CNS(=O)(=O)c1ccc(Nc2ncc3c(n2)N([C@@H]2CCC[C@@]2(C)O)C(=O)C32CC2)cc1 (relative stereo)
II: C[C@@H]1CCC[C@H]1N1C(=O)C2(CC2)c2cnc(Nc3ccc(S(=O)(=O)NCCO)cc3)nc21 (relative stereo)
q: Given the two records I and II , choose the one whose pIC50 value is lower. Give the label of your selection.
a: II
(II: 6.11, I: 6.46)
